biological target: human FAK (Homo sapiens (Human)); conditions: read-out: FAK IC50
Sequence (Q05397 whole entry): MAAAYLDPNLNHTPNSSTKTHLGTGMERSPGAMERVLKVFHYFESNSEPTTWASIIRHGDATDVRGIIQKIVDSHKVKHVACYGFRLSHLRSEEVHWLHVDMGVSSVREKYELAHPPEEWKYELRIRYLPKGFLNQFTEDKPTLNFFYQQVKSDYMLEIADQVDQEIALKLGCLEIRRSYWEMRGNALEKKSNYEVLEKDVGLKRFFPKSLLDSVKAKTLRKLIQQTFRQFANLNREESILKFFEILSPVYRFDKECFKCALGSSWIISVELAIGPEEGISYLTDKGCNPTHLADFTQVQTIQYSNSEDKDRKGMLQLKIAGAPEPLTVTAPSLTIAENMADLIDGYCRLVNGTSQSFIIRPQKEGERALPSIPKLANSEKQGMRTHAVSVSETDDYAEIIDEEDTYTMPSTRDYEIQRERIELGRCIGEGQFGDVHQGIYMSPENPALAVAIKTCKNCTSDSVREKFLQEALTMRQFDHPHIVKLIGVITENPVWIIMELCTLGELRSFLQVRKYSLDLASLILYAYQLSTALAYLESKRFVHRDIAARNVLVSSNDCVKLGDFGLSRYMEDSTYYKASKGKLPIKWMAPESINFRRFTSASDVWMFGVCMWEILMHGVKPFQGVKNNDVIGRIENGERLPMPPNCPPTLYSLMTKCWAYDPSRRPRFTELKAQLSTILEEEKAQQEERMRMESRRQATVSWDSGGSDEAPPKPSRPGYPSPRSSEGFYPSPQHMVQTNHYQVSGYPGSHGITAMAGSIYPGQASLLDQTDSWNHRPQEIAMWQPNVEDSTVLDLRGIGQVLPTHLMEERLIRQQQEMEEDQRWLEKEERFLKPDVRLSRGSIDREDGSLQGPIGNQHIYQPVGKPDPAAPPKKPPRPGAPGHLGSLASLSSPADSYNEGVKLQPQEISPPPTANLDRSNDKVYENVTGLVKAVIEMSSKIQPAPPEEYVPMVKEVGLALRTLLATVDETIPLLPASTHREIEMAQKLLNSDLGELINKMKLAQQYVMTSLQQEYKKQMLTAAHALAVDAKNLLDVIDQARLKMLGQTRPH
pIC50: −log10 of the molar value.
Classification field: met = pIC50 at or over 6; not met = pIC50 under 6.

Use these answered entries as a reference point.
{"molecule": "FC(F)COc1ccc(Cl)cc1-c1cccn2nc(Nc3ccc4c(c3)CCNCC4)nc12", "class.assignment": "met"}
{"molecule": "CN1CCN(c2ccc(Nc3nc4c(NCC5CCN(C(=O)OC(C)(C)C)C5)cccn4n3)cc2)CC1 (stereo not shown)", "class.assignment": "not met"}
{"molecule": "CS(=O)(=O)c1ccc(-c2cccn3nc(Nc4ccc(OCCN5CCCC5)cc4)nc23)cc1", "class.assignment": "met"}
{"molecule": "CN1CCN(c2ccc(Nc3nc4c(-c5ccccc5S(C)(=O)=O)cccn4n3)cc2)CC1", "class.assignment": "not met"}
{"molecule": "CN(C)C(=O)N1CCc2ccc(Nc3nc4c(-c5cc(Cl)ccc5OCC(F)F)cccn4n3)cc2CC1", "class.assignment": "not met"}
{"molecule": "COc1ncccc1-c1cccn2nc(Nc3ccc(C4CCN(C(=O)OC(C)(C)C)CC4)cc3)nc12", "class.assignment": "not met"}

Is it the case that COc1ccc(Nc2nc3cccc(-c4ccc(S(C)(=O)=O)cc4)n3n2)cc1 has pIC50 reaching or exceeding 6?
not met

Is it the case that CCOc1ccccc1-c1cccn2nc(Nc3ccc4c(c3)CCN(CCS(C)(=O)=O)CC4)nc12 has pIC50 reaching or exceeding 6?
not met

Is it the case that CS(=O)(=O)c1ccc(-c2cccn3nc(Nc4cccc(N5CCN(CCCF)CC5)c4)nc23)cc1 has pIC50 reaching or exceeding 6?
not met

Is it the case that CS(=O)(=O)c1cccc(-c2cccc3nc(Nc4ccc(CN5CCOCC5)cc4)nn23)c1 has pIC50 reaching or exceeding 6?
met
